Beta-2 adrenergic receptor (Homo sapiens) Ki, compiled from various sources.
# strict inequality: Ki < 60 nM yields true, everything else yields false

> print(dat)
                                   molecule  class.assignment
1  CCCN1CCN(c2ccc3c(c2)C(N(C)C(=O)OCc2ccccc2)CCC3)CC1 (centres undefined)             false

**Query** Just wondering, is Ki of CN1CCc2c(c3cccc4c3n2-c2ccccc2CC4)C1 below 60 nM?
**Result** false

**Query** Also check CS(=O)(=O)Oc1cccc2c(CCNC[C@H](O)c3cccc(NS(=O)(=O)c4cccc(N)c4)c3)c[nH]c12
**Result** false

**Query** Also check COc1ccc2nc(-c3ccc(OCC(O)CNC(C)C)cc3)n(C)c(=O)c2c1 (racemic)
**Result** false

**Query** Also check CS(=O)(=O)N1CCN(CCOc2ccc(Nc3ccc(CCNC[C@H](O)c4ccc(O)c5[nH]c(=O)ccc45)cc3)cc2)CC1
**Result** true

**Query** Also check N#Cc1cc2c(OCC(O)CN3CCN(C(c4ccccc4)c4ccccc4)CC3)cccc2[nH]1 (centres undefined)
**Result** true

**Query** Also check O=C(NC1CCCCC1)[C@H](Cc1ccccc1)NC[C@H](O)c1ccc(O)c2[nH]c(=O)sc12
**Result** false

**Query** Also check COc1ccc([C@H](CCc2ccccc2Cl)NC[C@H](O)Cc2ccc(O)c(NS(C)(=O)=O)c2)cc1OC
**Result** true

**Query** Also check CC(C)(C)NCC(O)COc1ccc(C(=O)NCCc2ccc(S(N)(=O)=O)cc2)cc1 (centres undefined)
**Result** false

**Query** Also check CC(C)NC[C@@H](O)COc1ccc(O)c(O)c1
**Result** false

**Query** Also check COc1ccc(Nc2ccc(CCNCC(O)c3ccc(O)c(CO)c3)cc2)cc1-c1ccccc1 (racemic)
**Result** false

**Query** Also check NS(=O)(=O)c1ccc(CCNC(=O)c2ccc(OCC(O)CNCc3ccccc3)cc2)cc1 (centres undefined)
**Result** false

**Query** Also check COc1ccccc1OCCNCCCOc1cccc2[nH]c3ccccc3c12
**Result** true

**Query** Also check COc1ccc([C@H](CCc2ccccc2)NC[C@H](O)Cc2ccc(O)c(NS(C)(=O)=O)c2)cc1
**Result** false

**Query** Also check CCCCN(CCCC)CCNC[C@H](O)c1ccc(O)c2[nH]c(=O)sc12
**Result** true

====

UniProt P07550 pKi, compiled from various sources.
Quick note: pKi means taking -log10 of the concentration in moles per liter.

Known results for compounds:
> print(dat)
                                   compound   system.tested  recorded.result
1  COc1ccc([C@H](CCc2ccccc2)NC[C@H](O)Cc2ccc(O)c(NS(C)(=O)=O)c2)cc1OC  UniProt P07550             6.41
2                  CC(C)NCCCOc1ccc(O)c(O)c1  UniProt P07550             5.16
3  COc1ccc(Nc2ccc(CCNC[C@H](O)c3ccc(O)c4[nH]c(=O)ccc34)cc2)cc1-c1ccccc1CN  UniProt P07550             8.50
4  CCc1cc2c(cc1CC)CC(NCC(O)c1ccc(O)c3[nH]c(=O)c(C)cc13)C2 (racemic)  UniProt P07550             6.42
5  O=C1c2cccc3cc(O)cc(c23)C(=O)N1CC1CCN(CC(O)COc2cccc3[nH]c4ccccc4c23)CC1 (configuration not stated)  UniProt P07550             7.43

**Query** Please give the measured pKi for this compound: COc1cc(CCNC[C@@H](O)COc2cccc3ccccc23)ccc1OCCCSSCCN
**Result** 8.96

**Query** Also check COc1ccccc1OCCNCCc1cccc2[nH]c3ccccc3c12
**Result** 7.59

**Query** Also check CC(C)[C@H](NC(=O)c1ccc(N2CCC(NC[C@H](O)c3ccc(O)c(NS(C)(=O)=O)c3)CC2)cc1)C(=O)O
**Result** 5.44

**Query** Also check CCC(CC)CNC[C@H](O)c1ccc(O)c2[nH]c(=O)sc12
**Result** 7.61

**Query** Also check C=CCc1ccccc1OCC(O)CN1CCOCC1 (configuration not stated)
**Result** 8.15

**Query** Also check CC(C)(C)NCC(O)COc1cccc2[nH]cc(CC(N)=O)c12 (configuration not stated)
**Result** 7.63

====

Beta-2 adrenergic receptor (Homo sapiens, UniProt P07550) log10 of Ki, compiled from various sources.
Kindly note that the scale is log10 and the underlying Ki is in µM.

Known results for compounds:
> print(dat)
                                   compound                             system.tested  parameter.measured  recorded.result
1  COc1cc2c3c(cccc3c1)C(=O)N(CC1CCN(CC(O)COc3ccccc3C(C)C)CC1)C2=O (stereo not given)  Beta-2 adrenergic receptor (Homo sapiens, UniProt P07550)         log10 of Ki            -1.42
2  COCCc1ccc(OC[C@@H](O)CNCCc2ccc(OCCCSSCCN)c(OC)c2)cc1  Beta-2 adrenergic receptor (Homo sapiens, UniProt P07550)         log10 of Ki            -1.70
3  O=c1ccc2c([C@@H](O)CNCCc3ccc(Nc4ccc(OCCN5CCOCC5)cc4)cc3)ccc(O)c2[nH]1  Beta-2 adrenergic receptor (Homo sapiens, UniProt P07550)         log10 of Ki            -1.70
4  CS(=O)(=O)Nc1cc(C[C@H](O)CN[C@H](Cc2ccccc2)c2ccc(Cl)c(Cl)c2)ccc1O  Beta-2 adrenergic receptor (Homo sapiens, UniProt P07550)         log10 of Ki            -1.42
5  COc1ccccc1N1CCN(CCCNC(=O)NN(Cc2ccc(F)cc2)c2ccccc2)CC1  Beta-2 adrenergic receptor (Homo sapiens, UniProt P07550)         log10 of Ki             0.65

**Query** Please give the measured log10 of Ki for this compound: Cc1nc2ccc(O)c(CN(C)C)c2[nH]1
**Result** 1.40

**Query** Also check CNCC(O)COc1ccc(S(=O)(=O)NCCc2ccccc2)cc1 (stereo not given)
**Result** 1.60

**Query** Also check COc1cc(CCNC[C@@H](O)c2ccc(O)c3c2OCC(=O)N3)ccc1OCCCc1ccccc1
**Result** -1.89

**Query** Also check OCc1cc(C(O)CNCCc2ccc(Nc3ccc(O)cc3)cc2)ccc1O (racemic)
**Result** 0.20

====

Beta-2 adrenergic receptor (Homo sapiens) pKi, compiled from various sources.
Quick note: pKi means taking -log10 of the concentration in moles per liter.

Known results for compounds:
> print(dat)
                                   compound  recorded.result
1  CS(=O)(=O)Oc1cccc2c(CCNC[C@H](O)c3cccc(NS(=O)(=O)c4cccs4)c3)c[nH]c12             6.65
2  CCCCc1ccc2c(c1)CC(NC[C@H](O)c1ccc(O)c3[nH]c(=O)ccc13)C2 (some centres undefined)             7.71
3  CC(C)(Cc1ccc(Oc2ccc(C(N)=O)cn2)cc1)NC[C@H](O)COc1cccc2[nH]c3ccccc3c12            10.92
4  COc1cc(CCNC[C@H](O)c2ccc(O)c3[nH]c(=O)ccc23)ccc1OCCCc1ccccc1             9.32
5  O=C(c1ccccc1)C1CCN(c2ccc(CCNCC(O)c3ccc(O)c(CO)c3)cc2)CC1 (racemic)             4.40

**Query** Please give the measured pKi for this compound: COc1cc(CCNC[C@@H](O)COc2ccc(O)c(O)c2)ccc1OCCCc1ccccc1
**Result** 6.92

**Query** Also check OCc1cc(C(O)CNCCc2ccc(Nc3ccc4ccccc4c3)cc2)ccc1O (racemic)
**Result** 6.50

**Query** Also check OCc1cc(C(O)CNCCc2ccc(Nc3cccc(-c4ccccc4)c3)cc2)ccc1O (racemic)
**Result** 6.50

**Query** Also check OCc1cc(C(O)CNCCc2ccc(Nc3ccc4c(c3)CCC4)cc2)ccc1O (racemic)
**Result** 6.10

**Query** Also check C=CCc1ccccc1OCC(O)CN1CCC(N2C(=O)c3cccc4cccc(c34)C2=O)CC1 (centres undefined)
**Result** 7.40

**Query** Also check COc1ccc(Nc2ccc(CCNC[C@H](O)c3ccc(O)c4[nH]c(=O)ccc34)cc2)cc1-c1ccccc1
**Result** 8.20

====

Beta-2 adrenergic receptor (Homo sapiens, UniProt P07550) pKi, compiled from various sources.
Quick note: pKi means taking -log10 of the concentration in moles per liter.

Known results for compounds:
> print(dat)
                                   compound  recorded.result
1  CC(C)(C)OC(=O)NCCOc1ccc(Nc2ccc(CCNC[C@H](O)c3ccc(O)c4[nH]c(=O)ccc34)cc2)cc1             7.70
2  CCc1cc2c(cc1CC)CC(NCC(O)c1c(C)cc(O)c3[nH]c(=O)ccc13)C2 (racemic)             6.29

**Query** Please give the measured pKi for this compound: COc1cc(CCNC[C@@H](O)c2ccc(O)c(O)c2)ccc1OCCCc1ccccc1
**Result** 7.33

**Query** Also check COc1cc(CCNC[C@H](O)COc2cccc3ccccc23)ccc1OCCCSSCCN
**Result** 10.14

**Query** Also check Cc1c[nH]c2cccc(OCC(O)CN3CCN(C(c4ccccc4)c4ccccc4)CC3)c12 (stereo not drawn)
**Result** 9.52

**Query** Also check COc1ccccc1OCCNC[C@@H](O)c1cccc2[nH]c3ccccc3c12
**Result** 6.77

**Query** Also check COc1cc(CCNCCCOc2ccc(O)c(O)c2)ccc1OCCCc1ccccc1
**Result** 6.15

**Query** Also check OCc1cc(C(O)CNCCc2ccc(Nc3ccc(Oc4ccccc4)cc3)cc2)ccc1O (racemic)
**Result** 6.50
